Target: T1, full-length human 14-3-3β protein with a N-terminal His6 tag (human, UniProt P31946 1-246)
T1 construct: 14-3-3 protein beta/alpha, human, full length; Treated as a dimer in the thermodynamic model (Pp = 14-3-3 dimer); also called Pp (14-3-3 dimer); source: E. coli BL21(DE3), pPROEX HTb, purified (Ni-NTA, dialysis)
T1 sequence (looked up): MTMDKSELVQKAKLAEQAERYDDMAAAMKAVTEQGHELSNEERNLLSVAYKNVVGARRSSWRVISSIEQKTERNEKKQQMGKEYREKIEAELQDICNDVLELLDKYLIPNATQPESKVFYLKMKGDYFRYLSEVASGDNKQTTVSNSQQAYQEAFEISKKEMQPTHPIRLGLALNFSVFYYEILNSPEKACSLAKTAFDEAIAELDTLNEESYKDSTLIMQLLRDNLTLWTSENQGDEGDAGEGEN
Assay: fluorescence polarisation; 2D fluorescence anisotropy titration, replicate 1: 14-3-3β titrated (from 250 µM) to FITC-labeled macrocycle or pepD with varying ChREBP peptide starting at 20 μM; KD I (binary affinity of the macrocycle for a site of the 14-3-3 dimer) fitted by the thermodynamic cooperativity model with KD II fixed at 1.5 µM; 10 mM HEPES pH 7.4, 150 mM NaCl, 0.1% Tween20, 0.1% BSA; room temperature
Conditions: both partners purified
Where no end group is shown, it is not given here. [ ]: non-standard residue; d: D form. Phe(4-NO2) = N[C@@H](Cc1ccc([N+](=O)[O-])cc1)C(=O)O; pS = N[C@@H](COP(=O)(O)O)C(=O)O; β3hS = N[C@@H](CO)CC(=O)O; βAla = NCCC(=O)O
property_name: Kd (µM)
Return type: number; implicit unit µM.

Examples from the recorded data:
binder	quantity_unit	observed_result
SFSXFKXK (not fully specified; phosphoserine; Phe(+1) triazole cyclised to the backbone amide nitrogen of Lys(+5) through a linker x = 3 (from 4-pentyn-1-ol); β-homoSer(+2); β-Ala(+3); Nph(+4); β-Ala and a lysine whose side chain carries fluorescein isothiocyanate (FITC) after Lys(+5)) [fluorescently labeled macrocycle F3]	µM	0.63
SFSXFKXK (not fully specified; phosphoserine; Phe(+1) triazole cyclised to the backbone amide nitrogen of Lys(+5) through a linker x = 2 (from 3-butyn-1-ol); β-homoSer(+2); β-Ala(+3); Nph(+4); β-Ala and a lysine whose side chain carries fluorescein isothiocyanate (FITC) after Lys(+5)) [fluorescently labeled macrocycle F2]	µM	12.6
SFSXFKXK (not fully specified; phosphoserine; Phe(+1) triazole cyclised to the backbone amide nitrogen of Lys(+5) through a linker x = 4 (from 5-hexyn-1-ol); β-homoSer(+2); β-Ala(+3); Nph(+4); β-Ala and a lysine whose side chain carries fluorescein isothiocyanate (FITC) after Lys(+5)) [fluorescently labeled macrocycle F4]	µM	5

Looking up [pS][Phe(4-NO2)][β3hS][βAla][Phe(4-NO2)]K (also: FITC label, site not given here) [FITC-labeled pepD] , I found its Kd recorded as 8.9

Looking up SFSXFKXK (not fully specified; phosphoserine; Phe(+1) triazole cyclised to the backbone amide nitrogen of Lys(+5) through a linker x = 1 (from propargyl alcohol); β-homoSer(+2); β-Ala(+3); Nph(+4); β-Ala and a lysine whose side chain carries fluorescein isothiocyanate (FITC) after Lys(+5)) [fluorescently labeled macrocycle F1] , I found its Kd recorded as 71
